Test system: WaGa
assayName: qHTS assay to identify novel small-molecules to repurpose for Merkel cell carcinoma treatment (AID 1296009); note: nearly all actives have a fitted effect of over 60% in size; note: potency is the fitted concentration of half-maximal effect
conditionNotes: MCC and control cell lines, CellTiter-Glo viability, 72 h; series mostly up to 46 µM
Inconclusive results are not listed. Activity calls are given as the source filed them. Calls come from the whole dose curve; as a rule, active = well fitted inhibition curve with a large enough effect; inconclusive = small, poorly fitted or top-dose-only effect; inactive = flat fitted curve, though single readings scatter.
propertyLabel: Potency

Below, each entry is followed by its recorded Potency result.
compound=CC[C@H]1C[C@H]2[C@@H]3CCC4=CC(=O)CC[C@@H]4[C@H]3CC[C@]2(C)[C@H]1O valuemeasured=inactive
compound=COP(=S)(OC)Oc1ccc(Sc2ccc(OP(=S)(OC)OC)cc2)cc1 valuemeasured=inactive
compound=CN(C)C(=S)SSC(=S)N(C)C valuemeasured="668 nM (active)"
compound=CC[n+]1c(-c2ccccc2)c2cc(N)ccc2c2ccc(N)cc21 valuemeasured="750 nM (active)"
compound=Cc1c(Cl)c(=O)oc2cc(OP(=O)(OCCCl)OCCCl)ccc12 valuemeasured=inactive

Memo: NC(=O)CN1CCCC1=O , reported Potency: inactive

Measured Potency, COc1cc(C[C@@H](C)N)c(OC)cc1Br : inactive

Input CN1[C@@H]2CC[C@H]1CC(OC(=O)c1cc(Cl)cc(Cl)c1)C2 (some centres not stated) . Output Potency: inactive

compound COc1cc(C[C@@H](C)N)c(OC)cc1C , Potency observed: inactive

====

conditionNotes: Ebola virus entry assay, blue channel fluorescence
Activity calls are given as the source filed them. The rule behind the calls is not given here.
propertyLabel: AC50

molecule=Cl/C(=C\n1cncn1)c1ccc(Cl)cc1Cl valuemeasured=inactive
molecule="CCN(CC)C(=O)Nc1ccc(OCC(O)CNC(C)(C)C)c(C(C)=O)c1 (configuration not stated)" valuemeasured=inactive
molecule=CC(=O)Oc1ccc(C(=C2CCCCC2)c2ccc(OC(C)=O)cc2)cc1 valuemeasured=inactive
molecule=OCCN1CCN(CCCN2c3ccccc3C=Cc3ccccc32)CC1 valuemeasured="14.1 µM (active)"
molecule=O=C(/C=C/c1ccccc1)NCCO valuemeasured=inactive
molecule="CC(COc1ccccc1)NC(C)C(O)c1ccc(O)cc1 (configuration not stated)" valuemeasured=inactive

// AC50 lookup, molecule = CCCc1cc(C(N)=S)ccn1 , result: inactive

# AC50 (molecule: Cc1ncc(CSSCc2cnc(C)c(O)c2CO)c(CO)c1O ) is inactive

N=C(N)c1ccc2cc(OC(=O)c3ccc(N=C(N)N)cc3)ccc2c1 yielded AC50 of inactive

====

assayName: qHTS of pediatric cancer cell lines to identify multiple opportunities for drug repurposing: Primary screen for NB1643 cells (AID 1347099); note: nearly all actives have a fitted effect of over 50% in size
conditionNotes: NB1643 neuroblastoma viability, CellTiter-Glo luminescence, 48 h; series mostly up to 46 µM
Results filed as inconclusive are left out. Active and inactive are the calls of the source. Calls come from the whole dose curve; as a rule, active = well fitted cell-killing curve with a large enough effect; inconclusive = small, poorly fitted or top-dose-only effect; inactive = no such curve, though single readings can be large or run the other way.
Answer with one of the outcomes given here: active, inactive

Qu. Kindly provide the recorded test outcome for the following compound: CCC(=O)O[C@H]1CC[C@H]2[C@@H]3CCC4=CC(=O)CC[C@]4(C)[C@H]3CC[C@]12C
Ans. inactive

Qu. Could you kindly confirm the outcome this assay logged for CC[n+]1c(-c2ccccc2)c2cc(N)ccc2c2ccc(N)cc21 ?
Ans. active

Qu. Hi team, can someone confirm the assay call for CC(C(O)c1ccccc1)N(C)C/C=C/c1ccccc1 (centres undefined) ?
Ans. inactive

Qu. Status in this test for COc1ccc2c(C(=O)c3ccc(Cl)cc3)c(C)n(CC(=O)O)c2c1 ?
Ans. inactive

Qu. Call for entry CCN1CCCC1CNC(=O)C(O)(c1ccccc1)c1ccccc1 (centres undefined) :
Ans. inactive

Qu. Kindly provide the recorded test outcome for the following compound: COP(=S)(OC)Oc1ccc(Sc2ccc(OP(=S)(OC)OC)cc2)cc1
Ans. inactive

Qu. Status in this test for CC[C@H](O)C(C[C@H](C)N(C)C)(c1ccccc1)c1ccccc1 ?
Ans. inactive

Qu. Dear colleague, could you share the recorded outcome for O=C(CCCN1CCC(n2c(=O)[nH]c3ccccc32)CC1)c1ccc(F)cc1 when you have a moment?
Ans. inactive

Qu. Dear colleague, could you share the recorded outcome for CCO[C@H]1O[C@@H]2OC3(C)CC[C@H]4[C@H](C)CC[C@@H]([C@H]1C)[C@@]24OO3 when you have a moment?
Ans. inactive

Qu. Hi, sorry to bother you, what did the test record for NCc1cccnc1 ?
Ans. inactive

Qu. Name the outcome recorded for CN1C[C@@H](NS(=O)(=O)N(C)C)C[C@@H]2c3cccc4c3c(cn4C)C[C@H]21 in the assay.
Ans. inactive

Qu. Which outcome was assigned to CN1CCc2cc(Cl)c(O)cc2[C@H]2c3ccccc3CC[C@@H]21 in this test?
Ans. inactive

Qu. Returns: the outcome recorded for OC(O)C(Cl)(Cl)Cl in this assay.
Ans. inactive

Qu. Recorded test call requested for Cc1nnc2n1-c1sc(CCC(=O)N3CCOCC3)cc1C(c1ccccc1Cl)=NC2
Ans. inactive

Qu. Identify the outcome logged in this assay for the compound shown: C[C@H]1C(=O)O[C@@H]2CCN3CC=C(COC(=O)[C@](C)(O)[C@]1(C)O)[C@H]23
Ans. inactive

Qu. // return assay outcome for O=C(N[C@@H]1N=C(c2ccccc2F)c2cccc3c2N(CC3)C1=O)c1cc2ccccc2[nH]1
Ans. inactive

Qu. In this assay, the call recorded for C[C@H]1CNCCc2ccc(Cl)cc21 was what?
Ans. inactive

Qu. Field: outcome | Entry: CCCN(CCC)CCc1c[nH]c2ccccc12
Ans. inactive

Qu. Recorded test call requested for COc1cc(CC(C)N)cc2c1OCO2 (centres undefined)
Ans. inactive

Qu. Which result was noted for this compound in the test: CN(C)CCc1c[nH]c2ccccc12
Ans. inactive

Qu. // param item: CCC(=O)OC1(c2ccccc2)CCN(C)CC1 ; yields the recorded call
Ans. inactive

Qu. Kindly provide the recorded test outcome for the following compound: ClCc1cccc(Cl)c1
Ans. inactive

Qu. In this assay, the call recorded for CCOC(=O)c1ncn2c1CN(C)C(=O)c1c(I)cccc1-2 was what?
Ans. inactive

Qu. Which result was noted for this compound in the test: CC(C)NCC(O)c1ccc(N)c(C#N)c1 (centres undefined)
Ans. inactive

====

conditionNotes: Ebola virus entry assay, green fluorescence channel
Results with a measured potency or affinity are listed apart. Active and inactive are the calls of the source. The rule behind the calls is not given here.
propertyLabel: efficacy

Looking up CSc1ccc(C(=O)c2[nH]c(=O)[nH]c2C)cc1 , I see its efficacy listed as 19.8% (inactive)

The reported value for Oc1cccc(-c2c3nc(c(-c4cccc(O)c4)c4ccc([nH]4)c(-c4cccc(O)c4)c4nc(c(-c5cccc(O)c5)c5ccc2[nH]5)CC4)C=C3)c1 in terms of efficacy is 82.1% (inactive)

// CCN(CC)CC(=O)OCC(=O)[C@@]1(O)CC[C@H]2[C@@H]3CCC4=CC(=O)CC[C@]4(C)[C@H]3[C@@H](O)C[C@@]21C : efficacy value = 17.3% (inactive)

Notebook: O=C(O)Cc1ccc2c(c1)C(=O)c1ccccc1CO2 , efficacy read as 17% (inactive)

====

conditionNotes: Ebola virus entry assay, ratio channel
The source made the active and inactive calls. How the calls were made is not given here.
Write down one outcome, taken from yes = active, no = inactive

Qu. Please indicate how the test categorized CCC(C(=O)OCCN1CCOC(c2ccccc2)C1C)c1ccccc1 (stereo not drawn) .
Ans. yes

Qu. Answer briefly: the call reported for CCOC(=O)[C@H](CCc1ccccc1)N[C@@H](C)C(=O)N(CC(=O)O)C1Cc2ccccc2C1 in this assay.
Ans. yes

Qu. Status in this test for O=C(O)CCC(=O)c1ccc(-c2ccccc2)cc1 ?
Ans. no

Qu. What call does the record list for CCOC(=O)OC(C)OC(=O)[C@@H]1N2C(=O)[C@@H](NC(=O)[C@H](N)c3ccccc3)[C@H]2SC1(C)C (stereo partly drawn) ?
Ans. no

Qu. Hello, I am checking results. What call was entered for OCCN1CCN(CCCN2c3ccccc3C=Cc3ccccc32)CC1 ?
Ans. yes

Qu. Field: outcome | Entry: CCCCCCCCNC(C)C(O)c1ccc(SC(C)C)cc1 (stereo not drawn)
Ans. yes

Qu. # outcome recorded in this test, key = CC(=O)OC[C@H]1O[C@@](COC(C)=O)(O[C@H]2O[C@H](COC(C)=O)[C@@H](OC(C)=O)[C@H](OC(C)=O)[C@H]2OC(C)=O)[C@@H](OC(C)=O)[C@@H]1OC(C)=O
Ans. no

Qu. Name the outcome recorded for C/C(=C(\CCOP(=O)(O)O)SC(=O)c1ccccc1)N(C=O)Cc1cnc(C)nc1N in the assay.
Ans. no

Qu. Entry CC1CC(=O)NN=C1c1ccc(NCC(C)(C)NCC(O)COc2cc(Cl)ccc2C#N)cc1 (stereo not drawn) : call = ?
Ans. no

Qu. Can you look up the reported call for O=C(NC(=O)c1c(F)cccc1F)Nc1cc(Cl)c(OC(F)(F)C(F)C(F)(F)F)cc1Cl (stereo not drawn) for me?
Ans. yes

Qu. GET /call?item= CC(C)OC(=O)C(C(=O)OC(C)C)=C1SC=CS1 returns the recorded outcome of this test.
Ans. no

Qu. Answer briefly: the call reported for Cc1cc(N)c2cc(NC(=O)Nc3ccc4nc(C)cc(N)c4c3)ccc2n1 in this assay.
Ans. yes

Qu. Which outcome was assigned to C[C@]12CC[C@H]3[C@@H](CCC4=CC(=O)CC[C@@]43C)[C@@H]1CC[C@@H]2C(=O)O in this test?
Ans. no

Qu. GET /call?item= CC(C)=CCC/C(C)=C/CC/C(C)=C/C(=O)OCC(=O)[C@@]1(O)CC[C@H]2[C@@H]3CCC4=CC(=O)C=C[C@]4(C)[C@H]3[C@@H](O)C[C@@]21C returns the recorded outcome of this test.
Ans. no

Qu. Tell me the recorded outcome of this test for O=C(O)CCC(=O)Nc1ccc(S(=O)(=O)Nc2nccs2)cc1 .
Ans. no

Qu. Could you check what this test reported for CCCCc1ccc2nc(NC(=O)OC)[nH]c2c1 ?
Ans. no

Qu. What was the test verdict on C[C@@H]1CC[C@@]2(OC1)O[C@H]1C[C@H]3[C@@H]4CC[C@H]5C[C@@H](O)CC[C@]5(C)[C@H]4CC(=O)[C@]3(C)[C@H]1[C@@H]2C ?
Ans. no

Qu. Would you mind telling me which call this test gave O=[N+]([O-])c1nccn1CO[C@@H](CO)[C@H](O)CO ?
Ans. no

Qu. Given [O-][n+]1ccccc1SSc1cccc[n+]1[O-] , state the outcome it received in this test.
Ans. yes

Qu. How was CN(C)CCc1c[nH]c2cccc(O)c12 classified in this test?
Ans. no

Qu. How was Cc1ccc(Nc2c(F)cccc2Cl)c(CC(=O)O)c1 classified in this test?
Ans. no

Qu. # lookup: test call for CC(=O)SC[C@@H](Cc1ccccc1)C(=O)NCC(=O)OCc1ccccc1
Ans. yes

Qu. Any idea what this test logged for OC[C@@H](O)[C@@H](O)[C@H](O)[C@H](O)CO ?
Ans. no

Qu. What classification did C[C@@H](O)[C@H](N)C(=O)O end up with in this test?
Ans. no

Qu. Assay outcome for O=C(O)C1CCC1 : what was it?
Ans. no

Qu. Check the results log: what was the call for Clc1ccc(CSC(Cn2ccnc2)c2ccc(Cl)cc2Cl)cc1 (stereo not drawn) ?
Ans. yes

Qu. Answer briefly: the call reported for CCCCCCCCCCCCCCCC[N+](C)(C)CCN(Cc1ccc(OC)cc1)c1ncccn1 in this assay.
Ans. no

Qu. Field: outcome | Entry: CC(C)(C)C(=O)C(Oc1ccc(Cl)cc1)n1ccnc1 (stereo not drawn)
Ans. no

Qu. Please let me know the test result on file for O=C1C(c2[nH]c3ccccc3c2O)=Nc2ccccc21 .
Ans. no

Qu. Write down the call the test reported for this compound. Item: COc1cc(N)c(Cl)cc1C(=O)NC1CCN(Cc2ccccc2)CC1
Ans. no

Qu. For this compound, state the assay outcome: CCC1Nc2cc(Cl)c(S(N)(=O)=O)cc2S(=O)(=O)N1 (stereo not drawn)
Ans. no

Qu. Answer briefly: the call reported for O=c1[nH]c2cc(C(F)(F)F)c(N3CCOCC3)cc2n(CP(=O)(O)O)c1=O in this assay.
Ans. no

Qu. # lookup: test call for NC(=O)CC[C@@H](N)C(=O)O
Ans. no

Qu. Hello, I am checking results. What call was entered for OCC(O)CS (stereo not drawn) ?
Ans. no

Qu. What classification did OC[C@]1(O)OC[C@@H](O)[C@H](O)[C@@H]1O end up with in this test?
Ans. no

Qu. Outcome? O=C(c1ccc(F)cc1)C1CCN(CCn2c(=S)[nH]c3ccccc3c2=O)CC1
Ans. yes

Qu. Recorded test call requested for CN1CCN(C2=Nc3cc(F)ccc3Cc3ccccc32)CC1
Ans. yes

Qu. Recorded call for N[C@@H](CSSC[C@H](N)C(=O)O)C(=O)O ?
Ans. no

Qu. What was the test verdict on Clc1ccc(CO/N=C(\Cn2ccnc2)c2ccc(Cl)cc2Cl)c(Cl)c1 ?
Ans. no

Qu. Recorded test call requested for NC(=NCCCCCCN=C(N)/N=C(\N)Nc1ccc(Cl)cc1)/N=C(\N)Nc1ccc(Cl)cc1
Ans. no

Qu. I would be grateful if you could indicate the recorded call for CC(=O)OCC(=O)[C@@]1(O)CC[C@H]2[C@@H]3CCC4=CC(=O)C=C[C@]4(C)[C@H]3[C@@H](O)C[C@@]21C .
Ans. no

Qu. What outcome does the record of this test show for CC(C(O)c1ccc(O)cc1)N1CCC(Cc2ccccc2)CC1 (stereo not drawn) ?
Ans. yes

Qu. Name the outcome recorded for CN(C)CCN1C(=O)c2ccccc2N(C)c2ccccc21 in the assay.
Ans. no

Data origin: PubChem BioAssay (NCATS)
